Please go through the items and note down their MIC.
# Test system: Staphylococcus sp.
# assayRemarks: Compound was evaluated for anti-methicillin-resistant activity against methicillin-resistant coagulase-negative Staphylococci CL 202
# Assay type: functional
The response must be a number in µg/mL with no trailing unit.

Query: Any idea what MIC was measured for `CN[C@H](CC(C)C)C(=O)N[C@H]1C(=O)N[C@@H](CC(N)=O)C(=O)N[C@H]2C(=O)N[C@H]3C(=O)N[C@H](C(=O)N[C@H](C(=O)O)c4cc(O)cc(O)c4-c4cc3ccc4O)[C@H](O)c3ccc(c(Cl)c3)Oc3cc2cc(c3O[C@@H]2O[C@H](CO)[C@@H](O)[C@H](O)[C@H]2O[C@H]2C[C@](C)(N)[C@H](O)[C@H](C)O2)Oc2ccc(cc2Cl)[C@H]1O` ?
Response: 8

Query: Any idea what MIC was measured for `C[C@@H](O)[C@H]1C(=O)N2C(C(=O)[O-])=C(c3cccc(-c4ccc(C[n+]5ccccc5N)cc4)c3)C[C@H]12` ?
Response: 2
